Tested on: giant foxtail (Setaria faberii)
Test: Test B pre-/postemergence plant response
Format: in vivo
Settings: Postemergence, 500 g ai/ha; 0 to 100 scale (0 no effect, 100 complete control)
Please enter class 1 where Plant response rating, Foxtail, Giant is greater than or equal to 40, and class 0 where it is lower.

line_notation=Cc1c(-c2ccccc2Oc2ncc(Cl)cn2)noc1C(F)(F)F assigned_class="class 0"
line_notation=FC(F)(F)c1cc(-c2c(Cl)cccc2Oc2ncc(Cl)cn2)no1 assigned_class="class 1"
line_notation=Cn1nnnc1-c1ccccc1Oc1ncc(Cl)cn1 assigned_class="class 1"
line_notation=N#Cc1cccc(Oc2ncc(Cl)cn2)c1-c1cc(C(F)F)on1 assigned_class="class 1"
line_notation=ON=Cc1cc(-c2ccccc2Oc2ncc(Cl)cn2)no1 assigned_class="class 0"
line_notation=CC(C)(C)c1cc(-c2ccccc2Oc2ncc(Cl)cn2)no1 assigned_class="class 1"
line_notation=FC(F)(F)c1cc(-c2ccccc2Oc2ncc(Br)cn2)on1 assigned_class="class 1"
line_notation=FC(F)(F)c1csc(-c2ccccc2Oc2ncc(I)cn2)n1 assigned_class="class 0"
line_notation=FC(F)c1cc(-c2c(Cl)cccc2Oc2ncc(Cl)cn2)no1 assigned_class="class 1"

From: patent US10131652B2
